// reported EC50 for each item listed
Molecular target: TLR1/TLR2 (Homo sapiens, UniProt O60603+Q15399)
Sequence (Q15399 25-786): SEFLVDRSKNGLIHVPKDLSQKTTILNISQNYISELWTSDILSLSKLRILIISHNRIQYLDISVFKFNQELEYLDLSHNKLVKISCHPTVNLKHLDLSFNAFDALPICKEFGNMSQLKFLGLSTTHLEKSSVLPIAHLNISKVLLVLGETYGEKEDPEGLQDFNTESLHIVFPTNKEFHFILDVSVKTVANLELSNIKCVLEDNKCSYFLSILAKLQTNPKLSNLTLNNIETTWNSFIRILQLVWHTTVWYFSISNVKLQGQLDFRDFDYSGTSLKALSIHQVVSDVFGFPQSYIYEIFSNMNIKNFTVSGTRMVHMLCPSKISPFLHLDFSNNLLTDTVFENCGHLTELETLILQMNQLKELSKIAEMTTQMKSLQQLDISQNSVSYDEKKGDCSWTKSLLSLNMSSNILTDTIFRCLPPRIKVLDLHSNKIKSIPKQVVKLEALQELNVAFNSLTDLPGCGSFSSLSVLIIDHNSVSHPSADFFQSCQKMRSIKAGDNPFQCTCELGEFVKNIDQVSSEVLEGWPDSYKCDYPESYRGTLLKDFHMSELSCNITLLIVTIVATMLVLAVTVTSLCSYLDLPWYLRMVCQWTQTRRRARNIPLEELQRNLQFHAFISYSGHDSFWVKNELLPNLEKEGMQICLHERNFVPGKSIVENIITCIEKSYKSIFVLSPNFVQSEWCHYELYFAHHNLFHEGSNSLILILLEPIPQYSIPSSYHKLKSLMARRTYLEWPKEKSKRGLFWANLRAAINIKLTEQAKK
Sequence (O60603 21-784): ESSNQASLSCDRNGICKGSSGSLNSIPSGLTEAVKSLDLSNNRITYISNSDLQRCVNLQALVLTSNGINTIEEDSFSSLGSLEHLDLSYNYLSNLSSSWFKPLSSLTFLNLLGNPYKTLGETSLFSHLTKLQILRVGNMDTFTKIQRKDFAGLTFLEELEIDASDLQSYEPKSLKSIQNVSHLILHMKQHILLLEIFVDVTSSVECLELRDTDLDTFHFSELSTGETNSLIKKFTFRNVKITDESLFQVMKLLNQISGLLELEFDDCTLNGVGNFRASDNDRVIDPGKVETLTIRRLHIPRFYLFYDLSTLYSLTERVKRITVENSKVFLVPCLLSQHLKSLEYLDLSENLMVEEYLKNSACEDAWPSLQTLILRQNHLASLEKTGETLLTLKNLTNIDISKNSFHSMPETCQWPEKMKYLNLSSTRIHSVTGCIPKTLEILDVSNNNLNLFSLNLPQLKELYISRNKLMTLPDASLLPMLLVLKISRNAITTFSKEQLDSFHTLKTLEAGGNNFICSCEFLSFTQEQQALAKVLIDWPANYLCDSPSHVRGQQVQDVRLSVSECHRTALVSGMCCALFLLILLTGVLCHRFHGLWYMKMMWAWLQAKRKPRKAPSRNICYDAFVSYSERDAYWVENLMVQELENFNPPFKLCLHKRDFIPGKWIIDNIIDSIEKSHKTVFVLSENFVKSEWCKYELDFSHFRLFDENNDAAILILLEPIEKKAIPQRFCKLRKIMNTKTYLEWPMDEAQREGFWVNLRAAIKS
Experiment: TNF-α release from PMA-differentiated human THP-1 cells (ELISA)
Settings: read-out: EC50 (nM) (THP-1): EC50 TNF-α release from human THP-1 cells; Table 5
Give just the numeric value; nM need not be written.

Answered cases to consult:
1) C[C@@H](NC(=O)OC(C)(C)C)C(=O)OCCCCCCCCCCCCNC(=O)[C@@H]1CN(C(=O)c2ccc(C(=O)N3C[C@@H](C(=O)N[C@H]4C[C@@H]4c4ccccc4)[C@H](C(=O)N[C@H]4C[C@@H]4c4ccccc4)C3)cc2)C[C@H]1C(=O)N[C@H]1C[C@@H]1c1ccccc1 [Compound 58] : 1.7
2) C[C@H](NC(=O)OC(C)(C)C)C(=O)OCCCCCCCCCCCCNC(=O)[C@@H]1CN(C(=O)c2ccc(C(=O)N3C[C@@H](C(=O)N[C@H]4C[C@@H]4c4ccccc4)[C@H](C(=O)N[C@H]4C[C@@H]4c4ccccc4)C3)cc2)C[C@H]1C(=O)N[C@H]1C[C@@H]1c1ccccc1 [Compound 57] : 0.25
3) CC(C)(C)OC(=O)NCC(=O)OCCCCCCCCCCCCNC(=O)[C@@H]1CN(C(=O)c2ccc(C(=O)N3C[C@@H](C(=O)N[C@H]4C[C@@H]4c4ccccc4)[C@H](C(=O)N[C@H]4C[C@@H]4c4ccccc4)C3)cc2)C[C@H]1C(=O)N[C@H]1C[C@@H]1c1ccccc1 [Compound 35] : 0.14
4) CC(C)(C)OC(=O)NCC(=O)NCC(=O)OCCCCCCCCCCCCNC(=O)[C@@H]1CN(C(=O)c2ccc(C(=O)N3C[C@@H](C(=O)N[C@H]4C[C@@H]4c4ccccc4)[C@H](C(=O)N[C@H]4C[C@@H]4c4ccccc4)C3)cc2)C[C@H]1C(=O)N[C@H]1C[C@@H]1c1ccccc1 [Compound 72] : 0.52
5) CN(CC(=O)OCCCCCCCCCCCCNC(=O)[C@@H]1CN(C(=O)c2ccc(C(=O)N3C[C@@H](C(=O)N[C@H]4C[C@@H]4c4ccccc4)[C@H](C(=O)N[C@H]4C[C@@H]4c4ccccc4)C3)cc2)C[C@H]1C(=O)N[C@H]1C[C@@H]1c1ccccc1)C(=O)OC(C)(C)C [Compound 70] : 1.7

Hello, I am looking for reported EC50 with TLR1/TLR2 (Homo sapiens, UniProt O60603+Q15399) for Cc1ccc(S(=O)(=O)n2cnc(C[C@H](NC(=O)OC(C)(C)C)C(=O)OCCCCCCCCCCCCNC(=O)[C@@H]3CN(C(=O)c4ccc(C(=O)N5C[C@@H](C(=O)N[C@H]6C[C@@H]6c6ccccc6)[C@H](C(=O)N[C@H]6C[C@@H]6c6ccccc6)C5)cc4)C[C@H]3C(=O)N[C@H]3C[C@@H]3c3ccccc3)c2)cc1 [Compound 68] . Could you help? 17

Cool, now CC(C)(C)OC(=O)N[C@@H](CCC(=O)OCc1ccccc1)C(=O)OCCCCCCCCCCCCNC(=O)[C@@H]1CN(C(=O)c2ccc(C(=O)N3C[C@@H](C(=O)N[C@H]4C[C@@H]4c4ccccc4)[C@H](C(=O)N[C@H]4C[C@@H]4c4ccccc4)C3)cc2)C[C@H]1C(=O)N[C@H]1C[C@@H]1c1ccccc1 [Compound 66] 39

* * *

Biological target: TLR1/TLR2 (Mus musculus, UniProt Q9EPQ1+Q9QUN7)
Sequence (Q9EPQ1 26-795): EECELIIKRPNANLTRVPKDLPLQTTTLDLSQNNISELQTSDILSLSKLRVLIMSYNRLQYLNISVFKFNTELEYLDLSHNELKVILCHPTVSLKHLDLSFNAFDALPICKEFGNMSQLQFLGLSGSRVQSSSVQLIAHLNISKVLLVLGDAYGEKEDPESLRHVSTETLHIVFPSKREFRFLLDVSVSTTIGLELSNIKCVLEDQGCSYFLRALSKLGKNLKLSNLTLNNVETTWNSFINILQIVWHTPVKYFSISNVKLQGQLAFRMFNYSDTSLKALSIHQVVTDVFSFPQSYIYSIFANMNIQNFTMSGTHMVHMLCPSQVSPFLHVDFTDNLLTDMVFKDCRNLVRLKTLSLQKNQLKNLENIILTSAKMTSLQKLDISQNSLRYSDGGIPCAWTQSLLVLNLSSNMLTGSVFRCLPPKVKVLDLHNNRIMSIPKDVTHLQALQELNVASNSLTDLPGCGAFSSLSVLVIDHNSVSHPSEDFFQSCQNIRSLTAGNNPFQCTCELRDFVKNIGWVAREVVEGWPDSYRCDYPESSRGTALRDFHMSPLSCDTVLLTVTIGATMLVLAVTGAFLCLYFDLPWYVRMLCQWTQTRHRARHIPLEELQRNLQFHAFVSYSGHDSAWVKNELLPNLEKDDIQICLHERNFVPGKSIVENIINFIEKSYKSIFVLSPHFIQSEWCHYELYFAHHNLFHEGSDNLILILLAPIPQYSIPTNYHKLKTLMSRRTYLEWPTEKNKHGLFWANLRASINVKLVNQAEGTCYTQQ
Sequence (Q9QUN7 25-784): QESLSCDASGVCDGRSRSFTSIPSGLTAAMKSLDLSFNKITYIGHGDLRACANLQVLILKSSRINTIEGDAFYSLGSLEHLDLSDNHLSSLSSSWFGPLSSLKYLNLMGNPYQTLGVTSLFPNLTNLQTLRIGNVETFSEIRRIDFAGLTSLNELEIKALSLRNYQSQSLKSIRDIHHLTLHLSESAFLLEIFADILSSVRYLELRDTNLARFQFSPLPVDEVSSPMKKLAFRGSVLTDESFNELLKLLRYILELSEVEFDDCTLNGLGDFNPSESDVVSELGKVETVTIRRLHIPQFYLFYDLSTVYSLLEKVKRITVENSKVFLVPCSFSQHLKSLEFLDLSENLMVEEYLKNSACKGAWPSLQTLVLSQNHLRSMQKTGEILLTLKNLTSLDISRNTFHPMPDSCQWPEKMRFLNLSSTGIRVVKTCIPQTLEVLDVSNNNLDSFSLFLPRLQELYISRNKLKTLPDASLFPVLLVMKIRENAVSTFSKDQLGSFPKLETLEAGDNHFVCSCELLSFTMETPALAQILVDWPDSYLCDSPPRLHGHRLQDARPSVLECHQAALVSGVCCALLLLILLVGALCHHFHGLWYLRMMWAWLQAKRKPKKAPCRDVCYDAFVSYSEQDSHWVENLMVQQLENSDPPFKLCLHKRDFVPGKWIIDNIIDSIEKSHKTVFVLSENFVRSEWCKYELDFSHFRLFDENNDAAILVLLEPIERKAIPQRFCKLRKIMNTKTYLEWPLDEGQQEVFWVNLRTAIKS
Assay: TNF-α release from thioglycolate-elicited mouse peritoneal macrophages (ELISA)
Settings: read-out: EC50 (nM) (mouse): EC50 TNF-α release from mouse macrophages; Table 5
metric: EC50 (nM)
Expressed in nM, but write only the number.

Worked examples follow.
1. CC(C)(C)OC(=O)N[C@@H](CCCCNC(=O)OCC1c2ccccc2-c2ccccc21)C(=O)OCCCCCCCCCCCCNC(=O)[C@@H]1CN(C(=O)c2ccc(C(=O)N3C[C@@H](C(=O)N[C@H]4C[C@@H]4c4ccccc4)[C@H](C(=O)N[C@H]4C[C@@H]4c4ccccc4)C3)cc2)C[C@H]1C(=O)N[C@H]1C[C@@H]1c1ccccc1 [Compound 69] : 1150
2. CC(C)(C)OC(=O)N[C@@H](CCC(=O)OCc1ccccc1)C(=O)OCCCCCCCCCCCCNC(=O)[C@@H]1CN(C(=O)c2ccc(C(=O)N3C[C@@H](C(=O)N[C@H]4C[C@@H]4c4ccccc4)[C@H](C(=O)N[C@H]4C[C@@H]4c4ccccc4)C3)cc2)C[C@H]1C(=O)N[C@H]1C[C@@H]1c1ccccc1 [Compound 66] : 450
3. CC(C)(C)OC(=O)N1CCC[C@H]1C(=O)OCCCCCCCCCCCCNC(=O)[C@@H]1CN(C(=O)c2ccc(C(=O)N3C[C@@H](C(=O)N[C@H]4C[C@@H]4c4ccccc4)[C@H](C(=O)N[C@H]4C[C@@H]4c4ccccc4)C3)cc2)C[C@H]1C(=O)N[C@H]1C[C@@H]1c1ccccc1 [Compound 60] : 9.2
4. CC(C)(C)OC(=O)N[C@@H](CSCc1ccccc1)C(=O)OCCCCCCCCCCCCNC(=O)[C@@H]1CN(C(=O)c2ccc(C(=O)N3C[C@@H](C(=O)N[C@H]4C[C@@H]4c4ccccc4)[C@H](C(=O)N[C@H]4C[C@@H]4c4ccccc4)C3)cc2)C[C@H]1C(=O)N[C@H]1C[C@@H]1c1ccccc1 [Compound 65] : 360
5. CC(C)(C)OC(=O)N[C@@H](COCc1ccccc1)C(=O)OCCCCCCCCCCCCNC(=O)[C@@H]1CN(C(=O)c2ccc(C(=O)N3C[C@@H](C(=O)N[C@H]4C[C@@H]4c4ccccc4)[C@H](C(=O)N[C@H]4C[C@@H]4c4ccccc4)C3)cc2)C[C@H]1C(=O)N[C@H]1C[C@@H]1c1ccccc1 [Compound 64] : 30
6. CN(CC(=O)OCCCCCCCCCCCCNC(=O)[C@@H]1CN(C(=O)c2ccc(C(=O)N3C[C@@H](C(=O)N[C@H]4C[C@@H]4c4ccccc4)[C@H](C(=O)N[C@H]4C[C@@H]4c4ccccc4)C3)cc2)C[C@H]1C(=O)N[C@H]1C[C@@H]1c1ccccc1)C(=O)OC(C)(C)C [Compound 70] : 17

Please find the next molecule below.
Observed EC50 on TLR1/TLR2 (Mus musculus, UniProt Q9EPQ1+Q9QUN7) for Cc1ccc(S(=O)(=O)n2cnc(C[C@H](NC(=O)OC(C)(C)C)C(=O)OCCCCCCCCCCCCNC(=O)[C@@H]3CN(C(=O)c4ccc(C(=O)N5C[C@@H](C(=O)N[C@H]6C[C@@H]6c6ccccc6)[C@H](C(=O)N[C@H]6C[C@@H]6c6ccccc6)C5)cc4)C[C@H]3C(=O)N[C@H]3C[C@@H]3c3ccccc3)c2)cc1 [Compound 68] , please. 35

* * *

Target: TLR1/TLR2 (Homo sapiens, UniProt O60603+Q15399)
Test: TNF-α release from PMA-differentiated human THP-1 cells (ELISA);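 note: cells exposed to graded compound concentrations for 4 h, TNF-α quantified in supernatant, LPS as positive and DMSO as negative control, values are duplicate means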
Settings: THP-1, 4 h, read-out: Efficacy (magnitude) of response versus diprovocim-1 (100%), THP-1
metric: Emax (%)
Report only the number, with the unit % understood.

Below are worked cases with known answers.
1) O=C(CNC(=O)OCC1c2ccccc2-c2ccccc21)OCCCCCCCCCCCCNC(=O)[C@@H]1CN(C(=O)c2ccc(C(=O)N3C[C@@H](C(=O)N[C@H]4C[C@@H]4c4ccccc4)[C@H](C(=O)N[C@H]4C[C@@H]4c4ccccc4)C3)cc2)C[C@H]1C(=O)N[C@H]1C[C@@H]1c1ccccc1 [Compound 38] : 100
2) CSCC[C@H](NC(=O)OC(C)(C)C)C(=O)OCCCCCCCCCCCCNC(=O)[C@@H]1CN(C(=O)c2ccc(C(=O)N3C[C@@H](C(=O)N[C@H]4C[C@@H]4c4ccccc4)[C@H](C(=O)N[C@H]4C[C@@H]4c4ccccc4)C3)cc2)C[C@H]1C(=O)N[C@H]1C[C@@H]1c1ccccc1 [Compound 67] : 100
3) C#CCCCCCCCCCCCCNC(=O)[C@@H]1CN(C(=O)c2ccc(C(=O)N3C[C@@H](C(=O)N[C@H]4C[C@@H]4c4ccccc4)[C@H](C(=O)N[C@H]4C[C@@H]4c4ccccc4)C3)cc2)C[C@H]1C(=O)N[C@H]1C[C@@H]1c1ccccc1 [Compound 19] : 120

Moving on to the next compound.
Form field: reported Emax of CC(C)(C)OC(=O)NCC(=O)NCC(=O)OCCCCCCCCCCCCNC(=O)[C@@H]1CN(C(=O)c2ccc(C(=O)N3C[C@@H](C(=O)N[C@H]4C[C@@H]4c4ccccc4)[C@H](C(=O)N[C@H]4C[C@@H]4c4ccccc4)C3)cc2)C[C@H]1C(=O)N[C@H]1C[C@@H]1c1ccccc1 [Compound 72] 110

* * *

Target: TLR1/TLR2 (Mus musculus, UniProt Q9EPQ1+Q9QUN7)
Test: TNF-α release from thioglycolate-elicited mouse peritoneal macrophages (ELISA)
Details: read-out: EC50 (nM) (mouse): EC50 TNF-α release from mouse macrophages; Table 6
Parameter EC50: see the listing below.
Write the number in nM without appending the unit.

1. CC(C)(C)OC(=O)NCC(=O)OCCCCCCCCCCCCNC(=O)[C@@H]1CN(C(=O)c2ccc(C(=O)N3C[C@@H](C(=O)N[C@H]4C[C@@H]4c4ccccc4)[C@H](C(=O)N[C@H]4C[C@@H]4c4ccccc4)C3)cc2)C[C@H]1C(=O)N[C@H]1C[C@@H]1c1ccccc1 : 0.75

Lab note: next molecule to report on.
Query: EC50; subject: O=C(CNC(=O)c1ccc(C(=O)O)cc1)OCCCCCCCCCCCCNC(=O)[C@@H]1CN(C(=O)c2ccc(C(=O)N3C[C@@H](C(=O)N[C@H]4C[C@@H]4c4ccccc4)[C@H](C(=O)N[C@H]4C[C@@H]4c4ccccc4)C3)cc2)C[C@H]1C(=O)N[C@H]1C[C@@H]1c1ccccc1 5
